# study-system: T1, Bcat-Halo (UniProt P35222 1-781, HaloTag NanoBRET 618 Ligand bound in the assay)
# T1 construct: Expressed by transfection in HEK293 cells; also called beta-catenin HaloTag NanoBRET construct; not shown: HaloTag
# T1 sequence (looked up): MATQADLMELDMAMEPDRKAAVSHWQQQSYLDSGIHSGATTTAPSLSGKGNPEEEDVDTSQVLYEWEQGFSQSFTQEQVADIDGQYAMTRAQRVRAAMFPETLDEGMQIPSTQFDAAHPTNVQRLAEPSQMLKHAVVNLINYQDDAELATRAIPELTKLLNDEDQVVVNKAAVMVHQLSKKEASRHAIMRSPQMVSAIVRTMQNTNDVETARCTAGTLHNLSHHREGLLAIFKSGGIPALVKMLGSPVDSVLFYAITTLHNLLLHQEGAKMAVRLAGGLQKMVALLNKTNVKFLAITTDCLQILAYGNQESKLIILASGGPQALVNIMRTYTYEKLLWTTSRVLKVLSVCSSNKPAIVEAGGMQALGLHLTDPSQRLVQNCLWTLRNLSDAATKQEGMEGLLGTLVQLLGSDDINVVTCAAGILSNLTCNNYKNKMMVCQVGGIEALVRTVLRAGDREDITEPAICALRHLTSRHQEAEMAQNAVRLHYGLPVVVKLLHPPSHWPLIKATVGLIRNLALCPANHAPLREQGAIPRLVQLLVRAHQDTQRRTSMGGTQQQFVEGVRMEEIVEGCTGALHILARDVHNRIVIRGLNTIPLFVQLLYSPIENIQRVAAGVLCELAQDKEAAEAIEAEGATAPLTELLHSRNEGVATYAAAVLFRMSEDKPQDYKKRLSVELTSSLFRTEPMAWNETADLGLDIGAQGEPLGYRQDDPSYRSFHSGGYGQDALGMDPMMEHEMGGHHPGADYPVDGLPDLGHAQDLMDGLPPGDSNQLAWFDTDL
# protocol-notes: NanoBRET Abs IC50 in HEK293 cells; competitor TCF4-Luc on Bcat-Halo
Starred links: 1 amine or outer side, 2 acyl side, 3 side chain; linkers in the order of their positions; H or OH if unused. Positions of bridges follow the written chain, without caps; N, C: chain ends. Non-standard residues stand in square brackets, D forms with d. Primed or numbered codes have the meaning given here. PyrS2″ = (S)-3-amino-1-((pent-4-en-1-yloxy)carbonyl)pyrrolidine-3-carboxylic acid (stapling residue), C=CCCCOC(=O)N1CC[C@@](N[*:1])(C(=O)[*:2])C1; B5(24) = 2-amino-2-(pent-4-en-1-yl)hept-6-enoic acid, 2,2-bis(4-pentenyl)glycine (stitching residue), C=CCCCC(CCCC=C)(N[*:1])C(=O)[*:2]; B5(4) = 2,2-bis(4-pentenyl)glycine = 2-amino-2-(pent-4-en-1-yl)hept-6-enoic acid (stitching residue), C=CCCCC(CCCC=C)(N[*:1])C(=O)[*:2]; PyrS2 = (S)-3-amino-1-((pent-4-en-1-yloxy)carbonyl)pyrrolidine-3-carboxylic acid, C=CCCCOC(=O)N1CC[C@@](N[*:1])(C(=O)[*:2])C1; B5 = 2-amino-2-(pent-4-en-1-yl)hept-6-enoic acid, C=CCCCC(CCCC=C)(N[*:1])C(=O)[*:2]; Phe(2-Cl) = N[C@@H](Cc1ccccc1Cl)C(=O)O; Bta = N[C@@H](Cc1csc2ccccc12)C(=O)O; αAllylPro = C=CC[C@@]1(C(=O)O)CCCN1; hSer = N[C@@H](CCO)C(=O)O
readout-name: IC50 (µM)
Field: numeric (µM). Do not append units.

- binder: "Ac-[αAllylPro]DF[B5]DDAAFS[PyrS2][Phe(2-Cl)][Bta][hSer]-NH2 (staple 1-4, 4-11, Stapled (stitched) peptide composition; olefin isomer not specified) [I-1143]"
  IC50 (µM): 33.1
- binder: "Ac-[αAllylPro]DF[B5(24)]DDAAFS[PyrS2″][Phe(2-Cl)][Bta]L-NH2 (staple 1-4, 4-11, Stapled (stitched) peptide composition; olefin isomer not specified) [I-1144]"
  IC50 (µM): 32.8
- binder: "Ac-[αAllylPro]DF[B5]DDAAFL[PyrS2][Phe(2-Cl)][Bta]T-NH2 (staple 1-4, 4-11, Stapled (stitched) peptide composition; olefin isomer not specified) [I-1145]"
  IC50 (µM): 30.6

In the following, a different binder is considered.
What value of IC50 has been recorded for this entry: Ac-[αAllylPro]DF[B5(4)]DDLAFT[PyrS2″][Phe(2-Cl)][Bta]S-NH2 (staple 1-4, 4-11, Stapled (stitched) peptide composition; olefin isomer not specified) [I-1156]
26.1
